Entries and their measured Ki follow.
Test: Binding affinity of compound was measured for bradykinin receptor in guinea pig ileum
Type: tissue-based, Cavia porcellus
Unit nM implied. Number only.

Some solved cases for reference:
[
  {
    "COMPOUND": "NC(N)=NCCC[C@@H](N)C(=O)N[C@@H](CCCN=C(N)N)C(=O)N1CCC[C@H]1C(=O)N1C[C@H](O)C[C@H]1C(=O)NCC(=O)N[C@@H](Cc1ccccc1)C(=O)N[C@@H](CO)C(=O)N[C@H](Cc1ccccc1)C(=O)N[C@@H](Cc1ccccc1)C(=O)N[C@@H](CCCN=C(N)N)C(=O)O",
    "UNIT OF MEASURE": "nM",
    "Ki": 57.9
  },
  {
    "COMPOUND": "CCCO[C@@H]1C[C@@H](C(=O)N2Cc3ccccc3C[C@H]2C(=O)N[C@@H](CCCN=C(N)N)C(=O)O)N(C(=O)[C@H](CO)NC(=O)[C@@H](NC(=O)CNC(=O)[C@@H]2C[C@H](O)CN2C(=O)[C@@H]2CCCN2C(=O)[C@H](CCCN=C(N)N)NC(=O)[C@H](N)CCCN=C(N)N)c2cccs2)C1",
    "UNIT OF MEASURE": "nM",
    "Ki": 0.77
  },
  {
    "COMPOUND": "CO[C@@H]1C[C@@H](C(=O)N2Cc3ccccc3CC2C(=O)N[C@@H](CCCN=C(N)N)C(=O)O)N(C(=O)[C@H](CO)NC(=O)[C@@H](NC(=O)CNC(=O)[C@@H]2C[C@H](O)CN2C(=O)[C@@H]2CCCN2C(=O)[C@H](CCCN=C(N)N)NC(=O)[C@H](N)CCCN=C(N)N)c2cccs2)C1 (stereo not given in full)",
    "UNIT OF MEASURE": "nM",
    "Ki": 2.12
  },
  {
    "COMPOUND": "CCCO[C@@H]1C[C@@H](C(=O)N2C3CCCCC3C[C@H]2C(=O)N[C@@H](CCCN=C(N)N)C(=O)O)N(C(=O)[C@H](CO)NC(=O)[C@@H](NC(=O)CNC(=O)[C@@H]2C[C@H](O)CN2C(=O)[C@@H]2CCCN2C(=O)[C@H](CCCN=C(N)N)NC(=O)[C@H](N)CCCN=C(N)N)c2cccs2)C1 (stereo not given in full)",
    "UNIT OF MEASURE": "nM",
    "Ki": 0.16
  }
]

Next:
// Ki value for CCCO[C@H]1C[C@@H](C(=O)N2Cc3ccccc3C[C@H]2C(=O)N[C@@H](CCCN=C(N)N)C(=O)O)N(C(=O)[C@H](CO)NC(=O)[C@@H](NC(=O)CNC(=O)[C@@H]2C[C@H](O)CN2C(=O)[C@@H]2CCCN2C(=O)[C@H](CCCN=C(N)N)NC(=O)[C@H](N)CCCN=C(N)N)c2cccs2)C1 : 144

----------
Assay: Binding affinity of compound was measured for bradykinin receptor in guinea pig ileum
Type: tissue-based, Cavia porcellus
RECORDED METRIC: Ki (nM)
// units = nM; emit number, no label

Given item CO[C@H]1C[C@@H](C(=O)N2Cc3ccccc3C[C@H]2C(=O)N[C@@H](CCCN=C(N)N)C(=O)O)N(C(=O)[C@H](CO)NC(=O)[C@@H](NC(=O)CNC(=O)[C@@H]2C[C@H](O)CN2C(=O)[C@@H]2CCCN2C(=O)[C@H](CCCN=C(N)N)NC(=O)[C@H](N)CCCN=C(N)N)c2cccs2)C1 , the value recorded as its Ki is 102
